assay: self-splicing fitness, log relative to wild type (ln ratio); higher = more splicing; Tetrahymena group I intron in knt gene, E. coli kanamycin selection, DiMSum; sequences stand for … in CUCUCU…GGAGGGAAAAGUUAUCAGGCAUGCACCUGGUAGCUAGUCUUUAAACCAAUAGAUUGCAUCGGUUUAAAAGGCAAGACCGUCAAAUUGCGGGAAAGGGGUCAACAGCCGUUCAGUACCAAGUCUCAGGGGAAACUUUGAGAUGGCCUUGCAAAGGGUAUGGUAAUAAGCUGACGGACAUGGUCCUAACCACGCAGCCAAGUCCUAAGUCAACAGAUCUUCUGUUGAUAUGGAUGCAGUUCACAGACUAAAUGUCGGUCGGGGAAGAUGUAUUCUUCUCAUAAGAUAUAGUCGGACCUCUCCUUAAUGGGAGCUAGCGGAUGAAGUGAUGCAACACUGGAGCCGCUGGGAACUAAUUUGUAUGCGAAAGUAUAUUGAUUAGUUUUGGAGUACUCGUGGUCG; details: 30 °C;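 note: selection with 25 µg/mL kanamycin versus none on LB agar overnight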
Returns class 1 if the recorded self-splicing fitness (ln) is greater than or equal to -2, and class 0 otherwise.

- seq-string: "AUUUAGCAAUAUUACGCCAG"
  assigned-label: "class 0"
- seq-string: "CUACAGCAAUAUUACGGACA"
  assigned-label: "class 1"
- seq-string: "UCUAAGCAAUAUUACGCGAA"
  assigned-label: "class 0"
- seq-string: "CUCGAGCAAUAUUACGUAUC"
  assigned-label: "class 0"
- seq-string: "CACAAGCAAUAUUACGUCGG"
  assigned-label: "class 1"
- seq-string: "GUCCAGCAAUAUUACGAUCC"
  assigned-label: "class 1"
- seq-string: "AUACAGCAAUAUUACGACAU"
  assigned-label: "class 1"
- seq-string: "GAGAAGCAAUAUUACGCGUU"
  assigned-label: "class 0"
- seq-string: "UCCUAGCAAUAUUACGCCAA"
  assigned-label: "class 0"
- seq-string: "UGCUAGCAAUAUUACGUCAA"
  assigned-label: "class 1"
- seq-string: "CGCGAGCAAUAUUACGAAAG"
  assigned-label: "class 0"
- seq-string: "CGGCAGCAAUAUUACGUAUC"
  assigned-label: "class 0"
- seq-string: "AUCCAGCAAUAUUACGGGCG"
  assigned-label: "class 1"
- seq-string: "UAAUAGCAAUAUUACGUUUA"
  assigned-label: "class 1"
- seq-string: "UGCGAGCAAUAUUACGCAGG"
  assigned-label: "class 0"
- seq-string: "GCUUAGCAAUAUUACGCCGU"
  assigned-label: "class 0"
